studySystem: Epidermal growth factor receptor (Homo sapiens, UniProt P00533, T790M/C797S/L858R)
Sequence (P00533 25-1210 T790M/C797S/L858R limits assumed): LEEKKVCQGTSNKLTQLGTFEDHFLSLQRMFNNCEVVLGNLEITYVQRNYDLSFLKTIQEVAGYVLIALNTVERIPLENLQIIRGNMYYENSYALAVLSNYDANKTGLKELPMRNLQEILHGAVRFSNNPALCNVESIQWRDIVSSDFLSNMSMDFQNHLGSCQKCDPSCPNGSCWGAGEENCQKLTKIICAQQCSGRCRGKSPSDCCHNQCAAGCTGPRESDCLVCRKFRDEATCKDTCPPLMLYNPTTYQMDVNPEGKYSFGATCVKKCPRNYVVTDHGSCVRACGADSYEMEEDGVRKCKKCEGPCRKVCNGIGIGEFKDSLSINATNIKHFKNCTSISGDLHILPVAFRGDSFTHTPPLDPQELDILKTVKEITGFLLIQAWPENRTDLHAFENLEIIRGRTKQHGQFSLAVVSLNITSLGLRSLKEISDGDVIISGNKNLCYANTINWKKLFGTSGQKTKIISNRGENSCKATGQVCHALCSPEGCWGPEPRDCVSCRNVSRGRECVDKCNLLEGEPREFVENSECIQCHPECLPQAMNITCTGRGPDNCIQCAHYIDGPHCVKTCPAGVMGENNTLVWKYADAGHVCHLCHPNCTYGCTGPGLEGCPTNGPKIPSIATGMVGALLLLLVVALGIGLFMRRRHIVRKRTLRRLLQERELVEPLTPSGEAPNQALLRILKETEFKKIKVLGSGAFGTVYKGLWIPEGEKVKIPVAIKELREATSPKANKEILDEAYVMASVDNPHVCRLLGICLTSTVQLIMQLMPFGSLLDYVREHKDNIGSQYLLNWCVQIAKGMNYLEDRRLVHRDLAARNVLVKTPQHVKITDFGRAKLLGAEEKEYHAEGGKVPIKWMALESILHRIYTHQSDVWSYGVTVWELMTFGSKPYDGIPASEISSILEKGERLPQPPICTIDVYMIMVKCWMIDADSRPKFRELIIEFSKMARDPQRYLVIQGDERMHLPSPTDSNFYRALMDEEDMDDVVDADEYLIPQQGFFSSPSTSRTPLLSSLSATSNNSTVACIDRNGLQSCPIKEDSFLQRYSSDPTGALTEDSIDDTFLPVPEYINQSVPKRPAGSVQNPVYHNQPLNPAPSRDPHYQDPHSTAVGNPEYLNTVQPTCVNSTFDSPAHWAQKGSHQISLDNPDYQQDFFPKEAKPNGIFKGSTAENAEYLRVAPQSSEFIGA
assayNotes: Inhibition of human C-terminal His-tagged and N-terminal GST-tagged EGFR L858R/T790M/C797S triple mutant ( 668 to 1210 amino acids) expressed in baculovirus infected Sf9 insect cells using Poly(Glu,Tyr) 4:1 as substrate after 60 mins by ELISA
conditionSummary: sf9
pIC50: −log10 of the molar value.

{"columns": ["compound", "pIC50"],
 "data": [
  ["CCC(=O)N1CCC[C@H](n2c(=O)c(-c3ccccc3Cl)c(C)c3cnc(Nc4ccc(N5CCN(C)CC5)c(C)c4)nc32)C1 (stereo in doubt; 8e-B)", "< 6.00"]
]}

====

studySystem: Epidermal growth factor receptor (Homo sapiens, UniProt P00533, C797S/L858R/T790M)
assayNotes: Inhibition of human C-terminal His-tagged and N-terminal GST-tagged EGFR L858R/T790M/C797S triple mutant ( 668 to 1210 amino acids) expressed in baculovirus infected Sf9 insect cells using Poly(Glu,Tyr) 4:1 as substrate after 60 mins by ELISA
pIC50: −log10 of the molar value.
Tick Satisfied if pIC50 is 7 or greater. Tick Not satisfied if pIC50 is less than 7.

{"columns": ["compound", "studySystem", "labelClass"],
 "data": [
  ["CCC(=O)N1CCC[C@@H](n2c(=O)c(-c3ccccc3)c(C)c3cnc(Nc4ccc(N5CCN(C)CC5)c(C)c4)nc32)C1", "Epidermal growth factor receptor (Homo sapiens, UniProt P00533, C797S/L858R/T790M)", "Not satisfied"],
  ["CCC(=O)N1CCC[C@@H](n2c(=O)c(-c3ccccc3Br)c(C)c3cnc(Nc4ccc(N5CCN(C)CC5)c(C)c4)nc32)C1 (stereo in doubt; 8l-A)", "Epidermal growth factor receptor (Homo sapiens, UniProt P00533, C797S/L858R/T790M)", "Not satisfied"],
  ["CCC(=O)N1CCC[C@@H](n2c(=O)c(-c3ccccc3C)c(C)c3cnc(Nc4ccc(N5CCN(C)CC5)c(C)c4)nc32)C1 (stereo in doubt; 8m-B)", "Epidermal growth factor receptor (Homo sapiens, UniProt P00533, C797S/L858R/T790M)", "Not satisfied"],
  ["CCC(=O)N1CCC[C@@H](n2c(=O)c(-c3ccccc3Cl)c(C)c3cnc(Nc4ccc(N5CCN(C)CC5)c(C)c4)nc32)C1 (stereo in doubt; 8f-A)", "Epidermal growth factor receptor (Homo sapiens, UniProt P00533, C797S/L858R/T790M)", "Not satisfied"],
  ["CCC(=O)N1CCC[C@@H](n2c(=O)c(-c3ccccc3Br)c(C)c3cnc(Nc4ccc(N5CCN(C)CC5)c(C)c4)nc32)C1 (stereo in doubt; 8l-B)", "Epidermal growth factor receptor (Homo sapiens, UniProt P00533, C797S/L858R/T790M)", "Satisfied"],
  ["CCC(=O)N1CCC[C@@H](n2c(=O)c(-c3cc(F)ccc3Cl)c(C)c3cnc(Nc4ccc(N5CCN(C)CC5)c(C)c4)nc32)C1 (stereo in doubt; 8p-B)", "Epidermal growth factor receptor (Homo sapiens, UniProt P00533, C797S/L858R/T790M)", "Satisfied"],
  ["CCC(=O)N1CCC[C@@H](n2c(=O)c(-c3ccc(Cl)cc3)c(C)c3cnc(Nc4ccc(N5CCN(C)CC5)c(C)c4)nc32)C1", "Epidermal growth factor receptor (Homo sapiens, UniProt P00533, C797S/L858R/T790M)", "Not satisfied"],
  ["CCC(=O)N[C@H]1CC[C@@H](n2c(=O)c(-c3ccccc3Cl)c(C)c3cnc(Nc4ccc(N5CCN(C)CC5)c(C)c4)nc32)CC1 (stereo in doubt; 8c-B)", "Epidermal growth factor receptor (Homo sapiens, UniProt P00533, C797S/L858R/T790M)", "Satisfied"],
  ["CCC(=O)N1CCC[C@@H](n2c(=O)c(-c3ccc(F)cc3Cl)c(C)c3cnc(Nc4ccc(N5CCN(C)CC5)c(C)c4)nc32)C1 (stereo in doubt; 8q-A)", "Epidermal growth factor receptor (Homo sapiens, UniProt P00533, C797S/L858R/T790M)", "Not satisfied"],
  ["CCC(=O)N1CCC[C@@H](n2c(=O)c(-c3cccc(Cl)c3)c(C)c3cnc(Nc4ccc(N5CCN(C)CC5)c(C)c4)nc32)C1", "Epidermal growth factor receptor (Homo sapiens, UniProt P00533, C797S/L858R/T790M)", "Not satisfied"],
  ["CCC(=O)N1CCC[C@H](n2c(=O)c(-c3ccccc3Cl)c(C)c3cnc(Nc4ccc(N5CCN(C)CC5)c(C)c4)nc32)C1 (stereo in doubt; 8e-A)", "Epidermal growth factor receptor (Homo sapiens, UniProt P00533, C797S/L858R/T790M)", "Not satisfied"],
  ["N#Cc1ccc(O)c(-c2nc(NCc3cnccn3)c3ccccc3n2)c1", "Epidermal growth factor receptor (Homo sapiens, UniProt P00533, C797S/L858R/T790M)", "Satisfied"],
  ["CCC(=O)N1CC[C@@H](n2c(=O)c(-c3ccccc3Cl)c(C)c3cnc(Nc4ccc(N5CCN(C)CC5)c(C)c4)nc32)C1 (stereo in doubt; 8g-A)", "Epidermal growth factor receptor (Homo sapiens, UniProt P00533, C797S/L858R/T790M)", "Not satisfied"],
  ["CCC(=O)N[C@H]1CC[C@@H](n2c(=O)c(-c3ccccc3Cl)c(C)c3cnc(Nc4ccc(N5CCN(C)CC5)c(C)c4)nc32)CC1 (stereo in doubt; 8c-A)", "Epidermal growth factor receptor (Homo sapiens, UniProt P00533, C797S/L858R/T790M)", "Not satisfied"],
  ["CCC(=O)N1CCC[C@@H](n2c(=O)c(-c3ccccc3C)c(C)c3cnc(Nc4ccc(N5CCN(C)CC5)c(C)c4)nc32)C1 (stereo in doubt; 8m-A)", "Epidermal growth factor receptor (Homo sapiens, UniProt P00533, C797S/L858R/T790M)", "Not satisfied"],
  ["CCC(=O)N1CCC[C@@H](n2c(=O)c(-c3cc(F)ccc3Cl)c(C)c3cnc(Nc4ccc(N5CCN(C)CC5)c(C)c4)nc32)C1 (stereo in doubt; 8p-A)", "Epidermal growth factor receptor (Homo sapiens, UniProt P00533, C797S/L858R/T790M)", "Not satisfied"]
]}
